Reference source for all entries: ChEMBL document CHEMBL4043204

Reported MIC by item:
Tested on: Mycobacterium tuberculosis
Assay: Antimycobacterial activity against isoniazid/rifampicin/ethambutol-resistant Mycobacterium tuberculosis G122 assessed as inhibition of mycobacterial growth incubated for 2 weeks by MABA method
Assay type: functional
Conditions: Mycobacterium tuberculosis, G122, 336 h
readoutLabel: MIC (µg/mL)

compound=C[C@H]1COc2c(N3CCN(C)CC3)c(F)cc3c(=O)c(C(=O)O)cn1c23.C[C@H]1COc2c(N3CCN(C)CC3)c(F)cc3c(=O)c(C(=O)O)cn1c23.O resultmodifier== experimentalresult=6.25
compound="COc1cc(C[C@@H](C)[C@@H](C)Cc2ccc(O)c(OC)c2)ccc1O [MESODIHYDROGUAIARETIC ACID]" resultmodifier=> experimentalresult=50
compound="COc1cc(C[C@@H](C)[C@@H](C)Cc2ccc(OCCN(C)C)c(OC)c2)ccc1O (racemic)" resultmodifier=> experimentalresult=50
compound=COc1cc(C[C@@H](C)[C@@H](C)Cc2ccc(OCCN3CCOCC3)c(OC)c2)ccc1OCCN1CCOCC1 resultmodifier== experimentalresult=6.25

###

Tested on: Mycobacterium tuberculosis
Test: Antimycobacterial activity against isoniazid/rifampicin/ethambutol-resistant Mycobacterium tuberculosis G122 assessed as inhibition of mycobacterial growth incubated for 2 weeks by MABA method
Assay type: functional
Threshold 4. -logMIC below it: rule met. -logMIC at it or above: rule not met.

compound="CCCCCCCCCCCCCCCCCC(=O)Oc1ccc(C[C@H](C)[C@H](C)Cc2ccc(O)c(OC)c2)cc1OC (racemic)" targetsystem="Mycobacterium tuberculosis" group="rule met"
compound="COc1cc(C[C@@H](C)[C@@H](C)Cc2ccc(OCCN(C)C)c(OC)c2)ccc1O (racemic)" targetsystem="Mycobacterium tuberculosis" group="rule not met"
compound=COc1cc(C[C@@H](C)[C@@H](C)Cc2ccc(OCCN(C)C)c(OC)c2)ccc1OCCN(C)C targetsystem="Mycobacterium tuberculosis" group="rule not met"
compound=COc1cc(C[C@@H](C)[C@@H](C)Cc2ccc(OC(=O)c3ccccc3)c(OC)c2)ccc1OC(=O)c1ccccc1 targetsystem="Mycobacterium tuberculosis" group="rule not met"
compound=CCCCCCCCCCCCCCCCCC(=O)Oc1ccc(C[C@@H](C)[C@@H](C)Cc2ccc(OC(=O)CCCCCCCCCCCCCCCCC)c(OC)c2)cc1OC targetsystem="Mycobacterium tuberculosis" group="rule met"
compound=COc1ccc(C[C@@H](C)[C@@H](C)Cc2ccc(OC)c(OC)c2)cc1OC targetsystem="Mycobacterium tuberculosis" group="rule not met"
compound="COc1cc(C[C@@H](C)[C@@H](C)Cc2ccc(OC(=O)c3ccccn3)c(OC)c2)ccc1O (racemic)" targetsystem="Mycobacterium tuberculosis" group="rule met"
compound=COc1cc(C[C@@H](C)[C@@H](C)Cc2ccc(OC(C)=O)c(OC)c2)ccc1OC(C)=O targetsystem="Mycobacterium tuberculosis" group="rule not met"

###

Test system: Mycobacterium tuberculosis
Experiment: Antimycobacterial activity against isoniazid/rifampicin/streptomycin-resistant Mycobacterium tuberculosis G133 assessed as inhibition of mycobacterial growth up to 50 ug/ml incubated for 2 weeks by MABA method
Assay type: functional
Calls of active or inactive are those of the source. The calls are words filed in the database; no cut-off is given here.
readoutLabel: growth inhibition (GI)

molecule=COc1cc(C[C@@H](C)[C@@H](C)Cc2ccc(OC(=O)c3ccccc3)c(OC)c2)ccc1OC(=O)c1ccccc1 experimentalresult=inactive
molecule="CCCCCCCCCCCCCCCCCC(=O)Oc1ccc(C[C@H](C)[C@H](C)Cc2ccc(O)c(OC)c2)cc1OC (racemic)" experimentalresult=inactive
molecule=COc1cc(C[C@@H](C)[C@@H](C)Cc2ccc(OC(=O)c3ccccn3)c(OC)c2)ccc1OC(=O)c1ccccn1 experimentalresult=inactive
molecule=CCCC(=O)Oc1ccc(C[C@@H](C)[C@@H](C)Cc2ccc(OC(=O)CCC)c(OC)c2)cc1OC experimentalresult=inactive

###

System: Mycobacterium tuberculosis
Test: Antimycobacterial activity against isoniazid/rifampicin/ethambutol-resistant Mycobacterium tuberculosis G122 assessed as inhibition of mycobacterial growth incubated for 2 weeks by MABA method
Type: functional
Conditions: Mycobacterium tuberculosis, G122, 336 h
readoutLabel: MIC (µg/mL)

compound="COc1cc(C[C@@H](C)[C@@H](C)Cc2ccc(OC(=O)c3ccc(Br)cc3)c(OC)c2)ccc1O (racemic)" targetsystem="Mycobacterium tuberculosis" resultmodifier=> experimentalresult=50
compound="COc1cc(C[C@@H](C)[C@@H](C)Cc2ccc(OC(C)=O)c(OC)c2)ccc1O (racemic)" targetsystem="Mycobacterium tuberculosis" resultmodifier=> experimentalresult=50
compound=COc1cc(C[C@@H](C)[C@@H](C)Cc2ccc(OCCN3CCCC3)c(OC)c2)ccc1OCCN1CCCC1 targetsystem="Mycobacterium tuberculosis" resultmodifier== experimentalresult=12.5
compound="COc1cc(C[C@@H](C)[C@@H](C)Cc2ccc(OC(=O)c3cccnc3)c(OC)c2)ccc1O (racemic)" targetsystem="Mycobacterium tuberculosis" resultmodifier== experimentalresult=50
compound="COc1cc(C[C@@H](C)[C@@H](C)Cc2ccc(OCCN3CCCCC3)c(OC)c2)ccc1O (racemic)" targetsystem="Mycobacterium tuberculosis" resultmodifier== experimentalresult=25
compound=COc1cc(C[C@@H](C)[C@@H](C)Cc2ccc(OC(=O)c3cccnc3)c(OC)c2)ccc1OC(=O)c1cccnc1 targetsystem="Mycobacterium tuberculosis" resultmodifier=> experimentalresult=50
compound="COc1cc(C[C@@H](C)[C@@H](C)Cc2ccc(OCCN3CCCC3)c(OC)c2)ccc1O (racemic)" targetsystem="Mycobacterium tuberculosis" resultmodifier== experimentalresult=25
compound=CCN(CC)CCOc1ccc(C[C@@H](C)[C@@H](C)Cc2ccc(OCCN(CC)CC)c(OC)c2)cc1OC targetsystem="Mycobacterium tuberculosis" resultmodifier== experimentalresult=25

###

Tested on: Mycobacterium tuberculosis
Assay: Antimycobacterial activity against isoniazid/rifampicin/ethambutol-resistant Mycobacterium tuberculosis G122 assessed as inhibition of mycobacterial growth incubated for 2 weeks by MABA method
Assay type: functional
Settings: Mycobacterium tuberculosis, G122, 336 h
readoutLabel: MIC

compound="COc1cc(C[C@@H](C)[C@@H](C)Cc2ccc(OC(=O)c3ccccn3)c(OC)c2)ccc1O (racemic)" readoutlabel=MIC experimentalresult="25 µg/mL"
compound=COc1cc(C[C@@H](C)[C@@H](C)Cc2ccc(OC(=O)c3cnccn3)c(OC)c2)ccc1OC(=O)c1cnccn1 readoutlabel=MIC experimentalresult="> 50 µg/mL"
compound=COc1cc(C[C@@H](C)[C@@H](C)Cc2ccc(OC(C)=O)c(OC)c2)ccc1OC(C)=O readoutlabel=MIC experimentalresult="> 50 µg/mL"
compound="COc1cc(C[C@@H](C)[C@@H](C)Cc2ccc(OC(=O)c3cnccn3)c(OC)c2)ccc1O (racemic)" readoutlabel=MIC experimentalresult="> 50 µg/mL"

###

System: Mycobacterium tuberculosis
Experiment: Antimycobacterial activity against isoniazid/rifampicin/ethambutol-resistant Mycobacterium tuberculosis G122 assessed as inhibition of mycobacterial growth incubated for 2 weeks by MABA method
Type: functional
readoutLabel: -logMIC

molecule="COc1cc(C[C@@H](C)[C@@H](C)Cc2ccc(OC(=O)c3cccnc3)c(OC)c2)ccc1O (racemic)" targetsystem="Mycobacterium tuberculosis" experimentalresult=4.05
molecule=CCCCCCCCCCCCCCCC(=O)Oc1ccc(C[C@@H](C)[C@@H](C)Cc2ccc(OC(=O)CCCCCCCCCCCCCCC)c(OC)c2)cc1OC targetsystem="Mycobacterium tuberculosis" experimentalresult=4.02
molecule=COc1cc(C[C@@H](C)[C@@H](C)Cc2ccc(OC(=O)c3ccc(Br)cc3)c(OC)c2)ccc1OC(=O)c1ccc(Br)cc1 targetsystem="Mycobacterium tuberculosis" experimentalresult=4.09
molecule="COc1cc(C[C@@H](C)[C@@H](C)Cc2ccc(OC)c(OC)c2)ccc1O (racemic)" targetsystem="Mycobacterium tuberculosis" experimentalresult=3.94
molecule="COc1cc(C[C@@H](C)[C@@H](C)Cc2ccc(OC(=O)c3ccccc3)c(OC)c2)ccc1O (racemic)" targetsystem="Mycobacterium tuberculosis" experimentalresult=4.01
molecule="CCCCCCCCCCCCCCCC(=O)Oc1ccc(C[C@H](C)[C@H](C)Cc2ccc(O)c(OC)c2)cc1OC (racemic)" targetsystem="Mycobacterium tuberculosis" experimentalresult=3.93
molecule=COc1cc(C[C@@H](C)[C@@H](C)Cc2ccc(OC(=O)c3ccccc3[N+](=O)[O-])c(OC)c2)ccc1OC(=O)c1ccccc1[N+](=O)[O-] targetsystem="Mycobacterium tuberculosis" experimentalresult=4.03
molecule="CCCC(=O)Oc1ccc(C[C@H](C)[C@H](C)Cc2ccc(O)c(OC)c2)cc1OC (racemic)" targetsystem="Mycobacterium tuberculosis" experimentalresult=3.93
